Tested on: NCI/ADR-RES ovarian
Test: NCI-60 one-dose screen, 48 h (100 = growth as untreated, 0 = no growth, -100 = all killed)
Conditions: 10 µM unless noted
The panel holds about 83,000 compounds, 20% with a hit somewhere; the sample as a whole holds those more often. The source made the active and inactive calls. The calls were made as follows: active = growth percent below 10; inactive = the rest.
Measurement Kind: growth

Worked cases, answers included:
[[record]]
compound = "COc1ccc(/C=C/C(=O)OCC(=O)NNC(=O)c2ccccc2)cc1OC"
observed_value = "116% (inactive)"

[[record]]
compound = "Clc1ccc2c(c1)NC1(CCSc3ccccc31)n1nccc1-2 (centres undefined)"
observed_value = "98.6% (inactive)"


Turning now to a further compound:
Which measured growth value corresponds to CCn1cc(C(=O)O)c(=O)c2cc(F)c(N3CCN(S(=O)(=O)c4cccc5ccccc45)CC3)cc21 ?
21.4% (inactive)
